Target Or System: Human serum albumin (HA), commercial HA (Homo sapiens)
Sequence (P02768 25-609): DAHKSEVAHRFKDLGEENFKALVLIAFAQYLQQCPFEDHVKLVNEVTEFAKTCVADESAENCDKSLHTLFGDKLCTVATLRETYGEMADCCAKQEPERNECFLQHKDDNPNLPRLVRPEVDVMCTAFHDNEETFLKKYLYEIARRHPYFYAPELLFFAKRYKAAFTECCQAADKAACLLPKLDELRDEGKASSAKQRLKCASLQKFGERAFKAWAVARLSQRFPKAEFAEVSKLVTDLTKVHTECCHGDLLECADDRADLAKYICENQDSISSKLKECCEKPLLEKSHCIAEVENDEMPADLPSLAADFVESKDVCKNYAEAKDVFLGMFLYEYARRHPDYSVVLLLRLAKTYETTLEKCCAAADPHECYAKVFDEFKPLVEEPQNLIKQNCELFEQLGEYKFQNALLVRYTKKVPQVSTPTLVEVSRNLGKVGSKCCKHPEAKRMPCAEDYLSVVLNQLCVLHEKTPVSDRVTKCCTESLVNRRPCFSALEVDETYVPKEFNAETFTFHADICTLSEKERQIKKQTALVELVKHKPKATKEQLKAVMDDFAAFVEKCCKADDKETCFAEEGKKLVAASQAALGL
Measurement Conditions: commercial HA captured on chip, steady state 1:1 model, 25 °C, validation
Measurement Label: Kd (µM)

>>> print(df.to_string())
                                   compound   u  observed_value
0  CN(C)c1cccc2c(S(=O)(=O)N[C@@H](Cc3ccccc3)C(=O)O)cccc12 [DPA, dansyl-L-phenylalanine]  µM             1.7

----------
Target Or System: Human serum albumin (HA), commercial HA (Homo sapiens)
pKd: −log10 of the molar value.
Measurement Label: pKd

>>> print(df.to_string())
                            smiles_notation  observed_value
0  C=CC1=C(C)/C(=C/C2=NC(=C\c3[nH]c(/C=C4\NC(=O)C(C)=C4C=C)c(C)c3CCC(=O)O)/C(CCC(=O)O)=C2C)NC1=O            4.89

Numbers sourced from paper PMC13039201.
